Test: Solubility experiment (HPLC, external standard)
Assay type: physicochemical
Settings: ph 7.4 medium, pH 7.4, pH 7.4 medium, 37 °C, 24 h
solubility at 24 h: recorded values
Give just the numeric value; µg/mL need not be written.

compound	numeric readout
CCn1c(-c2cc(C#CCN3CCS(=N)(=O)CC3)cnc2[C@H](C)OC)c2c3cc(ccc31)-c1csc(n1)C[C@H](NC(=O)[C@H]1[C@@H]3COC[C@@H]31)C(=O)N1CCC[C@H](N1)C(=O)OCC(C)(C)C2 (atropisomer, axis not shown; (Ra))	20.8

What the record says about CO[C@@H](C)c1ncc(C#CCN2CCS(=O)(=O)CC2)cc1-c1c2c3cc(ccc3n1CCCO)-c1csc(n1)C[C@H](NC(=O)[C@H]1[C@@H]3COC[C@@H]31)C(=O)N1CCC[C@H](N1)C(=O)OCC(C)(C)C2 (atropisomer, axis not shown; (Ra)) : solubility at 24 h is 12.3

* * *

Biological target: KRAS G12V-cRAF (Homo sapiens, UniProt P01116+P62937, G12V)
Sequence (P01116 1-188 isoform P01116-2 G12V): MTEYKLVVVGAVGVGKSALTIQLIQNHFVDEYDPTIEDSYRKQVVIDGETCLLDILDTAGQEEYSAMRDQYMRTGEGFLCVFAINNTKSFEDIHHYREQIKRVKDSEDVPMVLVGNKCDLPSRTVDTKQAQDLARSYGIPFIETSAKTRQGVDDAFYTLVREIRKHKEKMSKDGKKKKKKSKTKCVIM
Sequence (P62937 whole entry): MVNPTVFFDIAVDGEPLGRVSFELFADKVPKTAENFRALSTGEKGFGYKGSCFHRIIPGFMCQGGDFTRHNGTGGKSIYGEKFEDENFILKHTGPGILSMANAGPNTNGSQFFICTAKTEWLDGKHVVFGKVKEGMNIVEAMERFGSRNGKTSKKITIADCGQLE
Assay: Assay for binding of KRAS to cRAF (HTRF, with Cyclophilin A), KRAS G12V
Details: KRAS G12V-cRAF binding assay(nM), GPPNP-KRAS G12V, IC50 values
IC50: recorded values
Give just the numeric value; nM need not be written.

compound	assayed target	unit symbol	IC50
CCn1c(-c2cc(C#CCN3CCS(=O)(=O)CC3)cnc2C(C)OC)c2c3cc(ccc31)-c1csc(n1)CC(NC(=O)C1C3CNCC31)C(=O)N1CCCC(N1)C(=O)OCC(C)(C)C2 (atropisomer, axis not shown; (Ra)) [Compound Z18]	KRAS G12V-cRAF (Homo sapiens, UniProt P01116+P62937, G12V)	nM	16.5

We next turn to a different compound, shown below.
What the record says about COCCn1c(-c2cc(C#CCN3CCN(C(=O)CO)CC3)cnc2C(C)OC)c2c3cc(ccc31)-c1csc(n1)CC(NC(=O)C1C3COCC31)C(=O)N1CCCC(N1)C(=O)OCC(C)(C)C2 (atropisomer, axis not shown; (Ra)) [Compound Z31-1] : IC50 is 14.7

* * *

Assay: Human liver microsomal stability experiment
Type: in vitro ADME
Details: human liver microsomes; 45 mg/g, 20.7 g/kg scaling
outcome measure: CLint scaled (mL/min/kg)
Give just the numeric value; mL/min/kg need not be written.

What the record says about CCn1c(-c2cc(C#CCN3CCC(C#N)CC3)cnc2[C@H](C)OC)c2c3cc(ccc31)-c1csc(n1)C[C@H](NC(=O)[C@H]1[C@H](C)[C@@H]1C)C(=O)N1CCC[C@H](N1)C(=O)OCC(C)(C)C2 (atropisomer, axis not shown; (Ra)) : CLint scaled is 88.5

What the record says about CCn1c(-c2cc(C#CCN3CCC(C#N)(CN)CC3)cnc2[C@H](C)OC)c2c3cc(ccc31)-c1coc(n1)C[C@H](NC(=O)[C@H]1[C@H](C)[C@@H]1C)C(=O)N1CCC[C@H](N1)C(=O)OCC(C)(C)C2 (atropisomer, axis not shown; (Ra)) : CLint scaled is 97.9

* * *

pIC50: recorded values
Biological target: KRAS WT-cRAF (Homo sapiens, UniProt P01116+P62937)
Sequence (P01116 1-188 isoform P01116-2): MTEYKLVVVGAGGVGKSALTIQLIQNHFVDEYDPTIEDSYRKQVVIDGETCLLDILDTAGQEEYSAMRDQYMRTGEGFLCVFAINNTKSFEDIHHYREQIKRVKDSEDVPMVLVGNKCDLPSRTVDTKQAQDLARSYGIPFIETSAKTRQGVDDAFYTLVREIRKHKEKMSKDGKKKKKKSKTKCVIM
Sequence (P62937 whole entry): as the sequence (P62937 whole entry) above
Test: Assay for binding of KRAS to cRAF (HTRF, with Cyclophilin A), KRAS WT
Conditions: read-out: KRAS WT-cRAF binding assay, GPPNP-KRAS WT, IC50 values
// pIC50 here means minus log10 of the molar concentration (mol/L)

compound	assayed target	numeric readout
CCn1c(-c2cc(C#CCN3CCN(C(C)=O)CC3)cnc2[C@H](C)OC)c2c3cc(ccc31)-c1csc(n1)C[C@H](NC(=O)[C@H]1[C@H](C)[C@@H]1C)C(=O)N1CCC[C@H](N1)C(=O)OCC(C)(C)C2 (atropisomer, axis not shown) [Control compound 2]	KRAS WT-cRAF (Homo sapiens, UniProt P01116+P62937)	7.31

What the record says about CCn1c(-c2cc(C#CCN3CCS(=O)(=O)CC3)cnc2[C@H](C)NC)c2c3cc(ccc31)-c1csc(n1)C[C@H](NC(=O)[C@H]1[C@H](C)[C@@H]1C)C(=O)N1CCC[C@H](N1)C(=O)OCC(C)(C)C2 (atropisomer, axis not shown; (Ra)) : pIC50 is 7.71

What the record says about COCCn1c(-c2cc(C#CCN3CCN(C(=O)CO)CC3)c[n+]([O-])c2[C@H](C)OC)c2c3cc(ccc31)-c1csc(n1)C[C@H](NC(=O)[C@H]1[C@H](C)[C@@H]1C)C(=O)N1CCC[C@H](N1)C(=O)OCC(C)(C)C2 (atropisomer, axis not shown; (Ra)) : pIC50 is 7.13

What the record says about CCn1c(-c2cc(C#CCN3CCC(C#N)(CO)CC3)cnc2[C@H](C)OC)c2c3cc(ccc31)-c1csc(n1)C[C@H](NC(=O)[C@H]1[C@@H]3COC[C@@H]31)C(=O)N1CCC[C@H](N1)C(=O)OCC(C)(C)C2 (atropisomer, axis not shown) : pIC50 is 7.66
